test system: E. coli; experiment: Growth rate analysis in liquid media of cells expressing induced peptides; assay type: cell-based; conditions: ATG start codon converted to ACG, induced, growth rate
REPORTED_ENDPOINT: % inhibition versus pLAC11 control (antisense construct) (%)

{"MOLECULE": "pPep13-anti: pPep13 insert recloned in pLAC11 with ATG start codon changed to ACG (SEQ ID NO:32) (nucleic acid, expressed or natural sequence) DNA: TACTATAGATCTACGGACCGTGAAGTGATGTGTGCGGCAAAACAGGAATGGAAGGAACGAACGCCATAGGCCGCGTAATAAGAATTCTCGACA", "OBSERVED_MEASUREMENT": 0}
{"MOLECULE": "pPep1-anti: pPep1 insert recloned in pLAC11 with ATG start codon changed to ACG (SEQ ID NO:29) (nucleic acid, expressed or natural sequence) DNA: TACTATAGATCTACGGTCACTGAATTTTGTGGCTTGTTGGACCAACTGCCTTAGTAATAGTGGAAGGCTGAAATTAATAAGAATTCTCGACA", "OBSERVED_MEASUREMENT": 0}
{"MOLECULE": "pPep19-anti: pPep19 insert recloned in pLAC11 with ATG start codon changed to ACG (SEQ ID NO:33) (nucleic acid, expressed or natural sequence) DNA: TACTATAGATCTACGAGGGGCGCCAACTAAGGGGGGGGGAAGGTATTTGTCCCGTGCATAATCTCGGGTGTTGTCTAATAAGAATTCTCGACA", "OBSERVED_MEASUREMENT": 0}
